B1: NLV2 TCR alpha chain (CDR3α only) (parent)
chain: AGPMKTSYDKVI
partner: NLVGMVATV

variants of: B1; experiment: T-Switch: Jurkat TCRβ−/− cells expressing a CDR3 saturation-mutagenesis library, stained with two peptide-HLA-A*02:01 tetramers (original and novel peptide) plus anti-CD3, FACS-sorted into four gates, gDNA sequenced; details: with HLA-A*02:01 with peptide … (NLV 2-2, the original bait), tetramers 1 µg/mL, 30 min on ice, DP and SW gates expanded about 10 days between rounds ('two to three rounds of selection' in the Methods), gate SP: higher = more of the variant in the gate that binds the original peptide and not the novel one = retained original binding. Fold enrichment of the CDR3 variant in one FACS gate of a two-tetra, unresolved parent, parent is a CDR3 fragment, scale: fold enrichment, numbering: sequential-on-construct, sequence …
Listing of entries alongside the reported enrichment.
# print the numeric value only

Sample answers from the record:
| Variant designation | enrichment |
| --- | --- |
| […] (CDR3 as printed); D9I derived by comparing it with the table's wild-type CDR3 AGPMKTSYDKVI | 0 |
| […] (CDR3 as printed); S7Q derived by comparing it with the table's wild-type CDR3 AGPMKTSYDKVI | 0 |
| […] (CDR3 as printed); D9Q derived by comparing it with the table's wild-type CDR3 AGPMKTSYDKVI | 0 |
| […] (CDR3 as printed); I12M derived by comparing it with the table's wild-type CDR3 AGPMKTSYDKVI | 0 |
| […] (CDR3 as printed); Y8T derived by comparing it with the table's wild-type CDR3 AGPMKTSYDKVI | 0.942 |
| […] (CDR3 as printed); I12F derived by comparing it with the table's wild-type CDR3 AGPMKTSYDKVI | 2.21 |
| […] (CDR3 as printed); K5T derived by comparing it with the table's wild-type CDR3 AGPMKTSYDKVI | 4.91 |
| […] (CDR3 as printed); D9C derived by comparing it with the table's wild-type CDR3 AGPMKTSYDKVI | 0 |

For reference, reported enrichment for […] (CDR3 as printed); P3C derived by comparing it with the table's wild-type CDR3 AGPMKTSYDKVI stands at 0

For reference, reported enrichment for […] (CDR3 as printed); K10E derived by comparing it with the table's wild-type CDR3 AGPMKTSYDKVI stands at 0

For reference, reported enrichment for […] (CDR3 as printed); K10S derived by comparing it with the table's wild-type CDR3 AGPMKTSYDKVI stands at 0

For reference, reported enrichment for […] (CDR3 as printed); Y8A derived by comparing it with the table's wild-type CDR3 AGPMKTSYDKVI stands at 0

For reference, reported enrichment for […] (CDR3 as printed); Y8H derived by comparing it with the table's wild-type CDR3 AGPMKTSYDKVI stands at 0

For reference, reported enrichment for […] (CDR3 as printed); Y8P derived by comparing it with the table's wild-type CDR3 AGPMKTSYDKVI stands at 0

For reference, reported enrichment for […] (CDR3 as printed); K5D derived by comparing it with the table's wild-type CDR3 AGPMKTSYDKVI stands at 37.8

For reference, reported enrichment for […] (CDR3 as printed); G2D derived by comparing it with the table's wild-type CDR3 AGPMKTSYDKVI stands at 0

For reference, reported enrichment for […] (CDR3 as printed); P3G derived by comparing it with the table's wild-type CDR3 AGPMKTSYDKVI stands at 0

For reference, reported enrichment for […] (CDR3 as printed); T6F derived by comparing it with the table's wild-type CDR3 AGPMKTSYDKVI stands at 0

For reference, reported enrichment for […] (CDR3 as printed); T6N derived by comparing it with the table's wild-type CDR3 AGPMKTSYDKVI stands at 0

For reference, reported enrichment for […] (CDR3 as printed); A1R derived by comparing it with the table's wild-type CDR3 AGPMKTSYDKVI stands at 0

For reference, reported enrichment for […] (CDR3 as printed); M4Y derived by comparing it with the table's wild-type CDR3 AGPMKTSYDKVI stands at 0.292

For reference, reported enrichment for […] (CDR3 as printed); T6P derived by comparing it with the table's wild-type CDR3 AGPMKTSYDKVI stands at 9.39

These data points were gathered from paper PMC13397619.
